Endpoint summary: IC50, system: Collagenase 3 (Homo sapiens, UniProt P45452), multiple sources combined.

Tell me IC50 reported for O=C1COc2ccc(CNC(=O)c3nc4sc5c(c4c(=O)[nH]3)CCOCC5)cc2N1 < 100 nM

Tell me IC50 reported for Cc1cccn(CC2(c3ccc(Cc4ccc(F)cc4)cc3)NC(=O)NC2=O)c1=O (centres unmarked) > 100000 nM

Tell me IC50 reported for COc1cccc(CNC(=O)c2cc(C(=O)N[C@H]3CCc4cc(-c5nnn[nH]5)ccc43)ncn2)c1 > 5 nM

Tell me IC50 reported for CC(C)(C)OC(=O)N1CCN(S(=O)(=O)c2cc(F)c(Oc3ccc(F)cc3)c(F)c2)[C@@H](C(=O)NO)C1 1000 to 20000 nM

Tell me IC50 reported for CN1CCN(C(=O)N2CCN(S(=O)(=O)c3cc(F)c(Oc4ccc(Cl)cc4)c(F)c3)[C@@H](C(=O)NO)C2)CC1 < 50 nM

Tell me IC50 reported for CC(=O)N1CCOc2ccc(CNC(=O)c3nc4sc(CO)c(C)c4c(=O)[nH]3)cc21 100 to 20000 nM

Tell me IC50 reported for COCCOC(=O)N1CCN(S(=O)(=O)c2ccc(Oc3ccc(F)cc3)c(F)c2)[C@@H](C(=O)NO)C1 < 50 nM

Tell me IC50 reported for CS(=O)(=O)Nc1c[nH]c2c(C(=O)NCc3ccc4c(c3)NC(=O)CO4)ncnc12 101 to 20000 nM

Tell me IC50 reported for O=C1COc2ccc(CNC(=O)c3ncnc4c(C(=O)NCc5ccccc5)c[nH]c34)cc2N1 101 to 20000 nM

Tell me IC50 reported for Nc1c(N2CCc3ccc(CNC(=O)c4nc5sc6c(c5c(=O)[nH]4)CCC(c4ccccc4)C6)cc3C2)c(=O)c1=O (centres unmarked) 100 to 20000 nM

Tell me IC50 reported for Cc1c(C(=O)O)ccc2c1CC[C@@H]2NC(=O)c1cc(C(=O)NCc2ccc3c(c2)CN(c2c(N)c(=O)c2=O)CC3)ncn1 < 5 nM

Tell me IC50 reported for NS(=O)(=O)c1ccc(CNC(=O)c2nc3sc4c(c3c(=O)[nH]2)CCC4)s1 < 100 nM

Tell me IC50 reported for Cc1sc2nc(C(=O)NCc3ccc4c(c3)NC(=S)CO4)[nH]c(=O)c2c1C < 100 nM

Tell me IC50 reported for O=C(NO)[C@H]1CN(S(=O)(=O)c2cccc3cnccc23)CCN1S(=O)(=O)c1cc(F)c(Oc2ccc(Cl)cc2)c(F)c1 < 50 nM

Tell me IC50 reported for O=C1COc2ccc(CNC(=O)c3nc4cccc(C(F)(F)F)c4c(=O)[nH]3)cc2N1 < 100 nM

Tell me IC50 reported for CCOC(=O)c1[nH]c2ccc(-c3nc(C(=O)NCc4ccncc4)[nH]c3C)cc2c1F 7 nM

Tell me IC50 reported for COc1ccc(C2SC(CC(=O)NCCCN3CCCCC3C)C(=O)N2C(Cc2ccc(OC(C)(C)C)cc2)C(=O)NO)cc1 (centres unmarked) 66 nM

Tell me IC50 reported for O=C(NCc1ccsc1)c1nc2sc3c(c2c(=O)[nH]1)CCC3 100 to 20000 nM

Tell me IC50 reported for O=C(O)[C@@H]1[C@@H](Cn2nnc3ccc(C(F)(F)F)cc3c2=O)CC[C@H]1C(=O)c1ccc(OCCC2CCCC2)cc1 (single isomer, unassigned) 1700 nM

Tell me IC50 reported for O=C(NO)[C@H]1CN(S(=O)(=O)NC(=O)N2CCCCC2)CCN1S(=O)(=O)c1cc(F)c(Oc2ccc(Cl)cc2)c(F)c1 < 50 nM
